Listing of entries alongside the reported Plant response rating, Crabgrass, Large.
# Test system: large crabgrass
# assayNotes: Test A pre-/postemergence herbicide test
# Assay type: in vivo, Digitaria sanguinalis
# settings: Postemergence, 2000 g ai/ha; 0 to 100 scale, 0 no effect, 100 complete control
quantityName: Plant response rating, Crabgrass, Large

[[record]]
structureassmiles = "CCn1nc(C(C)(C)C)cc1C(=O)Nc1cc(OC(F)(F)F)ccc1F"
quantityname = "Plant response rating, Crabgrass, Large"
experimentalvalue = 45

[[record]]
structureassmiles = "CCn1nc(C(C)(C)C)cc1C(=O)Nc1cccc(OCCCF)c1"
quantityname = "Plant response rating, Crabgrass, Large"
experimentalvalue = 30

[[record]]
structureassmiles = "CCNC(=O)c1cccc(NC(=O)c2cc(C(C)(C)C)nn2CC)n1"
quantityname = "Plant response rating, Crabgrass, Large"
experimentalvalue = 90

[[record]]
structureassmiles = "CCN(CC)C(=O)c1cccc(NC(=O)c2sc(C(C)(C)C)nc2C)c1"
quantityname = "Plant response rating, Crabgrass, Large"
experimentalvalue = 50

[[record]]
structureassmiles = "CCN(C)C(=O)c1ccc(F)c(NC(=O)c2cc(C(C)(C)C)nn2CC)n1"
quantityname = "Plant response rating, Crabgrass, Large"
experimentalvalue = 0

[[record]]
structureassmiles = "CCn1nc(C(C)(C)C)cc1C(=O)Nc1cccc(C(=O)NCCF)c1"
quantityname = "Plant response rating, Crabgrass, Large"
experimentalvalue = 90

[[record]]
structureassmiles = "CCOC(=O)c1cc(NC(=O)c2cc(C(C)(C)C)nn2CC)ccc1OCC"
quantityname = "Plant response rating, Crabgrass, Large"
experimentalvalue = 60

[[record]]
structureassmiles = "CC(=NO)c1cccc(NC(=O)c2cn(C(C)C)nc2C)c1"
quantityname = "Plant response rating, Crabgrass, Large"
experimentalvalue = 35

[[record]]
structureassmiles = "CCn1nc(C(C)(C)C)cc1C(=O)Nc1cccc2c1CCN(C1CCCC1)C2=O"
quantityname = "Plant response rating, Crabgrass, Large"
experimentalvalue = 0


* * *

# Test system: soybean
# assayNotes: Test C pre-/postemergence herbicide test
# Assay type: in vivo, Glycine max
# settings: 125 g ai/ha; scale 0 (no effect) to 100 (complete control); visual, 12 to 14 days; preemergence
quantityName: Plant response rating, Soybean

[[record]]
structureassmiles = "CCOC(=O)c1cc(NC(=O)c2cc(C(C)(C)C)nn2CC)ccc1OCC"
systemtested = "soybean"
quantityname = "Plant response rating, Soybean"
experimentalvalue = 0

[[record]]
structureassmiles = "C=CCn1nc(C(C)(C)C)cc1C(=O)Nc1cccc(C(=O)NCC)c1"
systemtested = "soybean"
quantityname = "Plant response rating, Soybean"
experimentalvalue = 0

[[record]]
structureassmiles = "CCc1nc(C(C)(C)C)sc1C(=O)Nc1cccc(C(=O)N(CC)CC)c1"
systemtested = "soybean"
quantityname = "Plant response rating, Soybean"
experimentalvalue = 20

[[record]]
structureassmiles = "CCN(CC)C(=O)c1cccc(NC(=O)c2sc(C(C)(C)C)nc2C)c1"
systemtested = "soybean"
quantityname = "Plant response rating, Soybean"
experimentalvalue = 0

[[record]]
structureassmiles = "CCn1nc(C(C)(C)C)cc1C(=O)Nc1cccc(C(=O)NCC2CC2)c1"
systemtested = "soybean"
quantityname = "Plant response rating, Soybean"
experimentalvalue = 0


* * *

# Test system: large crabgrass
# assayNotes: Test B pre-/postemergence herbicide test
# Format: in vivo, Digitaria sanguinalis
# settings: 125 g ai/ha; 0 = no effect, 100 = complete control; preemergence
Recorded Crabgrass, Large plant response rating (0 to 100 scale) values for a group of compounds are listed next.
quantityName: Crabgrass, Large plant response rating (0 to 100 scale)

[[record]]
compound = "CCN(CC)C(=O)c1cccc(NC(=O)c2nn(C(C)(C)C)cc2Cl)c1"
systemtested = "large crabgrass"
experimentalvalue = 0

[[record]]
compound = "Cc1nn(C(C)(C)C)cc1C(=O)Nc1cccc(OC(C)C)c1"
systemtested = "large crabgrass"
experimentalvalue = 30

[[record]]
compound = "CCc1nc(C(C)(C)C)sc1C(=O)Nc1cccc(C(=O)N(C)CC)c1"
systemtested = "large crabgrass"
experimentalvalue = 40

[[record]]
compound = "CCNC(=O)c1ccnc(NC(=O)c2nn(C(C)(C)C)cc2CC)c1"
systemtested = "large crabgrass"
experimentalvalue = 20

[[record]]
compound = "C#CCNC(=O)c1cc(NC(=O)c2cc(C(C)(C)C)nn2CC)ccn1"
systemtested = "large crabgrass"
experimentalvalue = 0

[[record]]
compound = "CCNC(=O)c1cc(NC(=O)c2cc(C(C)(C)C)nn2CC)ccn1"
systemtested = "large crabgrass"
experimentalvalue = 0

[[record]]
compound = "CCNC(=O)c1ccc(F)c(NC(=O)c2cc(C3(C)CC3)nn2CC)c1"
systemtested = "large crabgrass"
experimentalvalue = 100

[[record]]
compound = "CCn1nc(C(C)(C)C)cc1C(=O)Nc1ccc(OC)c(OC)c1"
systemtested = "large crabgrass"
experimentalvalue = 100

[[record]]
compound = "CC(=NO)c1cccc(NC(=O)c2cc(C(C)(C)C)n[nH]2)c1"
systemtested = "large crabgrass"
experimentalvalue = 0

[[record]]
compound = "CCN1N=C(C(C)(C)C)CC1C(=O)Nc1cc(C(=O)N2CC=CC2)ccc1F (racemic)"
systemtested = "large crabgrass"
experimentalvalue = 90


* * *

# System: barnyardgrass
# assayNotes: Test C flooded paddy test
# Format: in vivo, Echinochloa crus-galli
# settings: 250 g ai/ha, scale of 0 to 100, 0 is no effect, 100 is complete control
quantityName: Barnyardgrass plant response rating

[[record]]
compound = "C#CCNC(=O)c1cc(NC(=O)c2cc(C(C)(C)C)nn2CC)ccn1 [Compound 283]"
experimentalvalue = 0

[[record]]
compound = "CCn1nc(C(C)(C)C)cc1C(=O)Nc1cncc(C(=O)N2CC=CC2)n1 [Compound 290]"
experimentalvalue = 25

[[record]]
compound = "CCn1nc(C(C)(C)C)cc1C(=O)Nc1cncc(C(=O)N2CC=CC2)c1 [Compound 260]"
experimentalvalue = 20

[[record]]
compound = "C=CCn1nc(C(C)(C)C)cc1C(=O)Nc1cccc(C(=O)NCC)c1 [Compound 56]"
experimentalvalue = 65

[[record]]
compound = "CCN1N=C(C(C)(C)C)CC1C(=O)Nc1cc(C(=O)N2CC=CC2)ccc1F (racemic) [Compound 310]"
experimentalvalue = 70

[[record]]
compound = "CCc1nc(C(C)(C)C)sc1C(=O)Nc1cccc(C(=O)N(C)CC)c1 [Compound 229]"
experimentalvalue = 75

[[record]]
compound = "CCNC(=O)c1ccc(F)c(NC(=O)c2cc(C3(C)CC3)nn2CC)c1 [Compound 300]"
experimentalvalue = 90

[[record]]
compound = "CCn1nc(C2(C)CC2)cc1C(=O)Nc1cc(C(=O)N2CC=CC2)ccc1F [Compound 301]"
experimentalvalue = 90

[[record]]
compound = "CCOC(=O)c1cc(NC(=O)c2cc(C(C)(C)C)nn2CC)c(F)cc1OC [Compound 76]"
experimentalvalue = 80

[[record]]
compound = "CON=C(C)c1cccc(NC(=O)c2cc(C(C)(C)C)nn2C)c1 [Compound 106]"
experimentalvalue = 0

[[record]]
compound = "C#CCNC(=O)c1cccc(NC(=O)c2sc(C(C)(C)C)nc2CC)c1 [Compound 319]"
experimentalvalue = 50

[[record]]
compound = "CCc1nc(C(C)(C)C)sc1C(=O)Nc1cc(C(=O)N(C)C)ccc1F [Compound 225]"
experimentalvalue = 80

[[record]]
compound = "CCc1nc(C(C)(C)C)sc1C(=O)Nc1cccc(C(=O)NC(C)(C)C)n1 [Compound 216]"
experimentalvalue = 0

[[record]]
compound = "CCc1nn(C(C)C)nc1C(=O)Nc1cccc(C(=S)N(C)C)c1 [Compound 409]"
experimentalvalue = 40

[[record]]
compound = "CCn1nc(C(C)(C)C)cc1C(=O)Nc1ccc(OC)c(C(=O)OC(C)C)c1 [Compound 101]"
experimentalvalue = 30

[[record]]
compound = "CCn1nc(C(C)(C)C)cc1C(=O)Nc1cccc(OS(=O)(=O)CC)c1 [Compound 408]"
experimentalvalue = 60

[[record]]
compound = "CCOc1cccc(NC(=O)c2cc(C(C)(C)C)nn2CC)c1 [Compound 136]"
experimentalvalue = 40

[[record]]
compound = "CCn1nc(C(C)(C)C)cc1C(=O)Nc1ccnc(C(=O)N(C)C)c1 [Compound 256]"
experimentalvalue = 0

[[record]]
compound = "Cc1nn(C(C)(C)C)nc1C(=O)Nc1cc(C(=O)N(C)C)ccc1F [Compound 378]"
experimentalvalue = 0


* * *

# System: giant foxtail
# assayNotes: Test B pre-/postemergence herbicide test
# Assay type: in vivo, Setaria faberi
# settings: postemergence, 125 g ai/ha; visual rating, scale 0 (no effect) to 100 (complete control)
quantityName: Foxtail, Giant plant response rating

[[record]]
structureassmiles = "CCn1nc(C(C)(C)C)cc1C(=O)Nc1nc(C(=O)N2CC=CC2)ccc1F"
experimentalvalue = 10

[[record]]
structureassmiles = "CCn1nc(C(C)(C)C)cc1C(=O)Nc1ccc(OC)c(C(=O)OC(C)C)c1"
experimentalvalue = 20

[[record]]
structureassmiles = "CC(C)(C)c1cc(C(=O)Nc2cccc(SC(F)(F)F)c2)n(CCF)n1"
experimentalvalue = 30

[[record]]
structureassmiles = "CCOC(=O)c1cc(NC(=O)c2cc(C(C)(C)C)nn2CC)c(F)cc1OC"
experimentalvalue = 20

[[record]]
structureassmiles = "CCn1nc(C(C)(C)C)cc1C(=O)Nc1cccc2c1CCN(C1CCCC1)C2=O"
experimentalvalue = 0

[[record]]
structureassmiles = "CCn1nc(C(C)(C)C)cc1C(=O)Nc1cccc(C(=O)N(C)C)c1"
experimentalvalue = 10

[[record]]
structureassmiles = "CCc1nn(C(C)(C)C)cc1C(=O)Nc1cc(C(=O)N(C)CC)ccc1F"
experimentalvalue = 20

[[record]]
structureassmiles = "CCNC(=O)c1cc(NC(=O)c2cc(C(C)(C)C)nn2CC)ccn1"
experimentalvalue = 0

[[record]]
structureassmiles = "CCn1nc(C(C)(C)C)cc1C(=O)Nc1cc(C(=O)NC(C)(C)C)ccn1"
experimentalvalue = 10

[[record]]
structureassmiles = "CCn1nc(C(C)(C)C)cc1C(=O)Nc1cccc(C(=O)NC(C)C)c1"
experimentalvalue = 0

[[record]]
structureassmiles = "CCn1nc(C(C)(C)C)cc1C(=O)Nc1cc(C(=O)OC(C)(C)C)ccc1F"
experimentalvalue = 0

[[record]]
structureassmiles = "CCNC(=O)c1cccc(NC(=O)c2nn(C(C)(C)C)cc2C(F)(F)F)c1"
experimentalvalue = 0

[[record]]
structureassmiles = "CCCCOc1cccc(NC(=O)c2cc(C(C)(C)C)nn2CC)c1"
experimentalvalue = 10

